HCV NS3 serine protease (UniProt Q9WMX2) Ki data
Sequence (Q9WMX2 1027-1657): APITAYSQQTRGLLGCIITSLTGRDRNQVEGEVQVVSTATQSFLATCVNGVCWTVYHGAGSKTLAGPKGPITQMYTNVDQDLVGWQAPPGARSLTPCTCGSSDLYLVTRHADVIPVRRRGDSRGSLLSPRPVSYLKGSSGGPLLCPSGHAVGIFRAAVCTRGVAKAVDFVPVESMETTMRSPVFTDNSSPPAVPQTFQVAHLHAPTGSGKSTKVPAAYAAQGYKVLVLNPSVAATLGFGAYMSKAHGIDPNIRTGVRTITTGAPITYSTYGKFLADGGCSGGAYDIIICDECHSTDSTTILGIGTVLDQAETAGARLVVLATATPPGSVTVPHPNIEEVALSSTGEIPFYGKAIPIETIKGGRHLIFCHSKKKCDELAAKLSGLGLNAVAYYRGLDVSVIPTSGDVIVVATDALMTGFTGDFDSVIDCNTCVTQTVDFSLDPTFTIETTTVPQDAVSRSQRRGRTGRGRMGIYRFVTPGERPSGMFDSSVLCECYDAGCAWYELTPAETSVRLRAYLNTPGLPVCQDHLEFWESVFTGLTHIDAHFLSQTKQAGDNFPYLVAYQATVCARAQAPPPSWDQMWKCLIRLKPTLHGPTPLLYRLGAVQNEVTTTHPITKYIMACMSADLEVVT

Problem: Param item = CCC[C@H](NC(=O)[C@@H]1C[C@]2(CN(c3ccccc3)C(=O)O2)CN1C(=O)[C@@H](NC(=O)CC1CCCCC1)C(C)(C)C)C(=O)C(=O)NC1CC1 ; retrieve measured Ki.
Solution: > 700 nM

Problem: Param item = CCC[C@H](NC(=O)[C@@H]1C[C@]2(CC(=O)N(c3cccc(Cl)c3)C2)CN1C(=O)[C@@H](NC(=O)CC1CCCCC1)C(C)(C)C)C(=O)C(=O)NC1CC1 ; retrieve measured Ki.
Solution: 410 to 700 nM

Problem: Param item = CCC[C@H](NC(=O)[C@@H]1C[C@@]2(CN(c3cccc(Cl)c3)C(=O)O2)CN1C(=O)[C@@H](NC(=O)OC1CCCC1)C(C)(C)C)C(=O)C(=O)NC1CC1 ; retrieve measured Ki.
Solution: < 410 nM
